The values you see were collected from patent US20250255945A1.

- Tested on: peripheral blood mononuclear cells (PBMCs)
- test: IFN-γ ELISPOT assay (ex vivo) with subject PBMCs
- Type: cell-based, human
- particulars: Table 2, HTAPP-DACP; response in ELISPOT experiments
Entries and their Elispot [nspots/pM] values follow.

Report measured Elispot [nspots/pM]; entry is 23 (MLFSNITPKAAYSPLTGGNMAFRQIKIWFQNRRMKWKK) [compound 23]
285,0 nspots/pM

Report measured Elispot [nspots/pM]; entry is 21 (ETNFKSLFHDLFQKVEERQIKIWFQNRRMKWKK) [compound 21]
334,0 nspots/pM

Report measured Elispot [nspots/pM]; entry is 27 (LFKDLGLPARTVSTTFRQIKIWFQNRRMKWKK) [compound 27]
196,0 nspots/pM

Report measured Elispot [nspots/pM]; entry is 31 (QSYPGSASLAAYSGMPRISKLRQIKIWFQNRRMKWK) [compound 31]
415,0 nspots/pM

Report measured Elispot [nspots/pM]; entry is 24 (RERRVASWAMSFERLRQIKIWFQNRRMKWKK) [compound 24]
436,0 nspots/pM
